Molecular target: NR1A/NR2B NMDA receptor subtype (Rattus norvegicus, UniProt P35439+Q00960)
Construct: buffy coat membrane fraction was prepared from frozen adult rat forebrains; tissue Zivic-Miller Laboratories, Inc; host or cells: adult rat forebrain membranes
Sequence (Q00960 27-1482, other chains not shown): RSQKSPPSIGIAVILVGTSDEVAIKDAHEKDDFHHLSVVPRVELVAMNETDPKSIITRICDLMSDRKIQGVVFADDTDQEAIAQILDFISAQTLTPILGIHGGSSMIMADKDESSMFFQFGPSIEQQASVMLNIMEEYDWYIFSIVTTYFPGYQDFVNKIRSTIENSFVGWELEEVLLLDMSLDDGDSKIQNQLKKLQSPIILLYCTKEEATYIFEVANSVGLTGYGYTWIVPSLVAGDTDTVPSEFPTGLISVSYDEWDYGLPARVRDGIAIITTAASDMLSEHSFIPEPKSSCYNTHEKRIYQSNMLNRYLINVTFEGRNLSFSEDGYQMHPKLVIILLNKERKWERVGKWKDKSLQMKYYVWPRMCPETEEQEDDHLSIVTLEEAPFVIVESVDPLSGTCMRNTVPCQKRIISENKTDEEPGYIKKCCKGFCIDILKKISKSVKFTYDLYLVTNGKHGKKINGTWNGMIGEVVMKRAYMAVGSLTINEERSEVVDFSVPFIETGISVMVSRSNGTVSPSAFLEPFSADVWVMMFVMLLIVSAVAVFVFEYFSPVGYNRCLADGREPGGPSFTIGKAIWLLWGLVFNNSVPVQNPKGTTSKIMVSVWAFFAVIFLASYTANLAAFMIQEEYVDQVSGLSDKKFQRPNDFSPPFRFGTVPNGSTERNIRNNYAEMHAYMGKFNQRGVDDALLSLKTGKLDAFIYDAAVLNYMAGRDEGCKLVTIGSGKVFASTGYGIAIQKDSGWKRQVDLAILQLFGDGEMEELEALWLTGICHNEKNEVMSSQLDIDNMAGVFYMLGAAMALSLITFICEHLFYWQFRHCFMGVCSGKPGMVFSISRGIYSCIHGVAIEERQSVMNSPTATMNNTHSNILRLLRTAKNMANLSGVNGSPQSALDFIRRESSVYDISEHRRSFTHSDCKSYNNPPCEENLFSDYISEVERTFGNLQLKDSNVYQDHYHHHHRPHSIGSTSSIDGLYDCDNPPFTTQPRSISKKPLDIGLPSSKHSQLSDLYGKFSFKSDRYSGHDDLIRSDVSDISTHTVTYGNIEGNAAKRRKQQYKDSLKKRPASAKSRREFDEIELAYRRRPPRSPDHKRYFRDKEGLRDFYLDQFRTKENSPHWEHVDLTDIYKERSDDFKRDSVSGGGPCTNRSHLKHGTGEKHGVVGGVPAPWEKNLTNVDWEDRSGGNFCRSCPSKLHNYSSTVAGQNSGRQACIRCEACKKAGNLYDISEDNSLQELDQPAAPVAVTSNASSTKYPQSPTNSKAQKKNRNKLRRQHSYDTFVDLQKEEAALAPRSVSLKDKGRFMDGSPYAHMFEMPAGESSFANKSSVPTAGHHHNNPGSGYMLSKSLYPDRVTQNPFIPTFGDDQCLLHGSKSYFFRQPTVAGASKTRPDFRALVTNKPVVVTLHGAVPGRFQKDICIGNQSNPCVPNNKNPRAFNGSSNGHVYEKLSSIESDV
Assay: [3H]Ifenprodil binding assay (IFPNR), rat forebrain membranes
Conditions: Table 5, 4 nM [3H]-ifenprodil, read-out: IFPNR IC50
measurementName: pIC50
Answers are plain numbers, as −log10 of the molar value.

Answered examples (2):
compound	experimentalValue
Cc1c(C2=NOC(CN3CCC(Cc4ccc(F)cc4)CC3)C2)cc2oc(=O)[nH]c2c1Cl (stereo not drawn)	7.85
O=c1[nH]c2ccc(C3=NOC(CN4CC[C@@H](Cc5ccc(F)cc5)[C@@H](O)C4)C3)cc2o1 (stereo in doubt)	7.64

Field: next compound
Asked: Given the entry O=c1[nH]c2ccc(C3=NOC(CN4CCC(Cc5ccc(F)cc5)CC4)C3)cc2s1 (stereo not drawn) , report its measured pIC50.
Given back: 8.70

---

Assign IC50 to each entry below.
Biological target: NR1A/NR2B NMDA receptor subtype (Rattus norvegicus, UniProt P35439+Q00960)
Construct: buffy coat membrane fraction was prepared from frozen adult rat forebrains; tissue Zivic-Miller Laboratories, Inc; host or cells: adult rat forebrain membranes
Assay: [3H]Ifenprodil binding assay (IFPNR), rat forebrain membranes
Settings: Table 3, 4 nM [3H]-ifenprodil, read-out: IFPNR IC50
Method: b. [^3H]Ifenprodil Binding Assay (IFPNR) Protocol: Ifenprodil, [phenyl-^3H]-(specific activity, 66.2 Ci/mmol) was purchased from Dupont NEN Research Products (Boston, Mass.). […] Triplicate incubations were carried out in a volume of 0.5 mL in 1.3 mL polypropylene tubes (Marsh Biomedical Products Inc, Rochester, N.Y.) for 2 hours at room temperature. […] Radioactivity retained on the filter was determined by liquid scintillation spectrophotometry. […]
Answers are plain numbers, in nM.

molecule	unitInfo	IC50
O=c1[nH]c2ccc(C3=NOC(CN4CCC(O)(Cc5ccc(F)cc5)CC4)C3)cc2o1 (stereo not shown)	nM	8

Provide IC50 for all items below, preserving their order.
1. O=c1[nH]c2ccc(C3=NOC(CN4CCC(c5ccc(F)cc5)CC4)C3)cc2o1 (stereo not shown)
2. O=c1[nH]c2ccc(C3=NOC(CN4CCC(O)(Cc5ccccc5)CC4)C3)cc2o1 (stereo not shown)

Given back:
1. 280
2. 6

---

Exercise: state measured IC50 for each of the compounds provided.
Target: NR1A/NR2B NMDA receptor subtype (Rattus norvegicus, UniProt P35439+Q00960)
Construct: buffy coat membrane fraction was prepared from frozen adult rat forebrains; tissue Zivic-Miller Laboratories, Inc; host or cells: adult rat forebrain membranes
Assay: [3H]Ifenprodil binding assay (IFPNR), rat forebrain membranes
Details: Table 2, 4 nM [3H]-ifenprodil, read-out: IFPNR IC50 μm
Numbers only, in nM.

Here's what some known entries look like.
compound	IC50 / nM
O=c1[nH]c2ccc(C3=NCC(CN4CCC(Cc5ccccc5)CC4)S3)cc2o1 (centres unmarked) [Example 13]	101
O=C(O)C1(CN2CCC(Cc3ccc(F)cc3)CC2)CC(c2ccc3[nH]c(=O)oc3c2)=NO1 (centres unmarked) [Example 22]	788

Below is a list of compounds. For each, state its recorded IC50.
1. O=c1[nH]c2ccc(-c3cc(CN4CCC(Cc5ccc(F)cc5)CC4)on3)cc2o1 [Example 15]
2. S=c1[nH]c2ccc(-c3cnc(CN4CCC(Cc5ccccc5)CC4)s3)cc2[nH]1 [Example 8]
3. CC1(CN2CCC(Cc3ccc(F)cc3)CC2)CC(c2ccc3[nH]c(=O)oc3c2)=NO1 (centres unmarked) [Example 21]
4. O=c1[nH]c2ccc(C3=NCC(CN4CCC(Cc5ccc(F)cc5)CC4)S3)cc2o1 (centres unmarked) [Example 12]
5. O=c1[nH]c2ccc(-c3cnc(CN4CCC(Cc5ccc(F)cc5)CC4)s3)cc2o1 [Example 6]

Given back:
1: 499; 2: 66; 3: 11; 4: 394; 5: 540

Ref: patent US6642256B2
